- Protocol details: Solubility of CHIR99021 diHCl in Poloxamer P-407/water solutions under refrigeration
- Format: physicochemical
- Condition description: 15% Poloxamer P-407 in water, aqueous with cosolvent or surfactant or cyclodextrin, thermodynamic from solid, 15% P-407 in water, 2 days, no DMSO or other additives, read-out: CHIR99021 diHCl Conc (solubility)

# Compound, Unit text, solubility at 2 days
data = [
    ("Cc1c[nH]c(-c2cnc(NCCNc3ccc(C#N)cn3)nc2-c2ccc(Cl)cc2Cl)n1 [CHIR99021 diHCl]", "µg/mL", 7.9),
]

* * *

- Protocol details: Solubility of CHIR99021 diHCl in Poloxamer P-407/water solutions under refrigeration
- Type: physicochemical
- Condition description: 10% Poloxamer P-407 in water, aqueous with cosolvent or surfactant or cyclodextrin, thermodynamic from solid, 10% P-407 in water, 2 days, no DMSO or other additives, read-out: CHIR99021 diHCl Conc (solubility)

# Compound, solubility at 2 days
measured = [
    ("Cc1c[nH]c(-c2cnc(NCCNc3ccc(C#N)cn3)nc2-c2ccc(Cl)cc2Cl)n1 [CHIR99021 diHCl]", "2.6 µg/mL"),
]
